The following compounds were reported with Ki values on human PDE10A2 (Homo sapiens (Human), UniProt Q9Y233) in different studies.
Observable: Ki (nM)

>>> assay_result("COc1ccc([C@H]2C[C@@H]2COc2nc(C)ncc2-c2cc(=O)n(C)cc2C2CC2)nc1")
0.583
>>> assay_result("COc1ccc([C@H]2C[C@@H]2COc2nc(C)ncc2-c2ccc(Br)cn2)nc1")
11.6
>>> assay_result("Cc1nc(C2CC2c2nc3ccccc3[nH]2)cc(-n2nc(C)nc2C)n1 (stereo not shown)")
6.8
>>> assay_result("Cc1nc(C)n(-c2cc([C@H]3C[C@@H]3c3nc4ccccc4n3C)nc(N3CCCC3)n2)n1 (relative stereo)")
1.2

* * *

// read-out Ki, gathered for human PDE10A2 (Homo sapiens (Human), UniProt Q9Y233) from published studies
Observable: Ki

>>> assay_result("Cc1nc(N2CC(c3nc4ccccc4n3C)C2)cc(-n2nc(C)nc2CN2CCCC2=O)n1")
"0.26 nM"
>>> assay_result("Cc1nc(N2CC(c3nc4ccccc4n3C)C2)cc(-n2nc(C)nc2-c2c(F)cccc2F)n1")
"0.24 nM"
>>> assay_result("CC1CCCCC1n1nnc2c(N)ncnc21 (single isomer, unassigned)")
"2400 nM"
>>> assay_result("Cc1nc(C2CC2c2nnc(C)s2)cc(-n2nc(C)nc2C)n1 (stereo not drawn)")
"124 nM"
>>> assay_result("Cc1ccc(-n2c(CCN3C(=O)c4ccccc4C3=O)nc3cc(Cl)ccc3c2=O)cc1")
"77 nM"
>>> assay_result("Cc1nc(N2CC(c3nc4ccccc4n3C)C2)cc(-n2nncc2C)n1")
"8.5 nM"
>>> assay_result("Cc1nc(C)n(-c2cc([C@H]3C[C@@H]3c3nc4ccccc4n3C)nc(OC(C)C)n2)n1 (relative stereo)")
"0.62 nM"
>>> assay_result("COc1ccccc1-c1cc(N2CC(c3nc4ccccc4n3C)C2)nc(C)n1")
"63 nM"
>>> assay_result("Cc1ccc([C@H]2C[C@@H]2COc2nc(C)ncc2C2CCCCC2)nc1")
"2.28 nM"

* * *

Collected set of Ki measured with human PDE10A2 (Homo sapiens (Human)) across studies.
Observable: Ki

>>> assay_result("C[C@@H]1CCC[C@H](c2nnc3c(N)nccn23)C1")
"2600 nM"
>>> assay_result("Cc1ccc(C2CC2c2cc(-n3nc(C)nc3Cc3ccccc3)nc(C)n2)nc1 (stereo not shown)")
"0.21 nM"
>>> assay_result("COCCn1c(C)c(-c2cnc(C)nc2OC[C@H]2C[C@@H]2c2ccc(C)cn2)ccc1=O")
"3.06 nM"
>>> assay_result("CCn1nnnc1-c1ccc(-c2cnc(C)nc2OC[C@H]2C[C@@H]2c2ccc(OC)cn2)cn1")
"1.16 nM"

* * *

Collected from the literature: pKi of various compounds toward human PDE10A2 (Homo sapiens (Human), UniProt Q9Y233).
pKi: −log10 of the molar value.
Observable: pKi

>>> assay_result("CSc1nc(N2CC(c3nc4ccccc4n3C)C2)cc(-n2nc(C)nc2C)n1")
9.70
>>> assay_result("Cc1nc([C@@H]2C[C@H]2c2ccc3ccccc3n2)cc(-n2nc(C)nc2C)n1 (relative stereo)")
8.22
>>> assay_result("CCn1ccc(-c2cnc(C)nc2OC[C@H]2C[C@@H]2c2ccc(C)cn2)cc1=O")
8.84
>>> assay_result("COc1ccc([C@H]2C[C@@H]2COc2nc(C)ncc2-c2cc(=O)[nH]cc2C)nc1")
9.21
>>> assay_result("CCn1cc(-c2cnc(C)nc2OC[C@H]2C[C@@H]2c2ccc(C)cn2)ccc1=O")
8.96
>>> assay_result("COc1ccc(Cc2nc(C)nn2-c2cc(C3CC3c3nc(C)no3)nc(C)n2)cc1OC (centres unmarked)")
6.61
>>> assay_result("COc1ccc([C@H]2C[C@@H]2COc2nc(C)ncc2-c2ccc(=O)n(CC3CC3)c2)nc1")
9.42
>>> assay_result("Cc1nc([C@@H]2C[C@H]2c2nc3ccccc3n2C)cc(-n2nc(Br)nc2C)n1")
8.70
>>> assay_result("Cc1nc(C2CC2c2nnc(C)o2)cc(-n2nc(C)nc2C)n1 (centres unmarked)")
6.04
>>> assay_result("COc1ccc([C@H]2C[C@@H]2COc2nc(C)ncc2-c2ccc(-c3noc(C)n3)cc2)nc1")
8.71
>>> assay_result("Cc1ccc(-c2cc(N3CC(c4nc5ccccc5n4C)C3)nc(C)n2)c(F)n1")
8.10
>>> assay_result("Cc1nc(C)c(CNc2cc(C3CC3)nc3ccnn23)s1")
8.04
>>> assay_result("Cc1ccc([C@H]2C[C@@H]2COc2nc(C)ncc2C2CCC(F)(F)CC2)nc1")
7.92
>>> assay_result("Cc1nc([C@@H]2C[C@H]2c2nc3ccccc3n2CC2CCCCO2)cc(-n2nc(C)nc2C)n1 (stereo in doubt)")
8.22

* * *

Literature survey of Ki (system: human PDE10A2 (Homo sapiens (Human))).
Observable: Ki (nM)

>>> assay_result("COc1ccc([C@H]2C[C@@H]2COc2nc(C)ncc2-c2ccc(-c3noc(CO)n3)cc2)nc1")
2.03
>>> assay_result("Cc1nc([C@@H]2C[C@H]2c2cc3n(n2)CCCC3)cc(-n2nc(C)nc2C)n1")
60.7
>>> assay_result("COC(=O)CCc1nc(C)nn1-c1cc(N2CC(c3nc4ccccc4n3C)C2)nc(C)n1")
0.49
>>> assay_result("COc1ccc(Cc2nc(C)nn2-c2cc([C@H]3C[C@H]3c3ccc4ncccc4n3)nc(C)n2)cc1OC (relative stereo)")
0.068
>>> assay_result("COc1ccc(Cc2nc(C)nn2-c2cc(C#Cc3ccc4ncccc4n3)nc(C)n2)cc1OC")
0.82
>>> assay_result("COc1ccc(Cc2nc(C)nn2-c2cc(C#Cc3ccc4ccccc4n3)nc(C)n2)cc1OC")
0.023
>>> assay_result("COCCn1ccc(-c2cnc(C)nc2OC[C@H]2C[C@@H]2c2ccc(C)cn2)cc1=O")
0.4
>>> assay_result("Cc1nc(C)n(-c2cc(N3CC(c4nc5ccccc5n4C)C3)nc(C3CC3)n2)n1")
0.46
>>> assay_result("COc1ccc([C@H]2C[C@@H]2COc2nc(C)ncc2C2CCC3(CC2)OCCO3)nc1")
2.84
>>> assay_result("CCn1cc(-c2cnc(C)nc2OC[C@H]2C[C@@H]2c2ccc(OC)cn2)cc(C)c1=O")
0.381
>>> assay_result("Cc1nc([C@@H]2C[C@H]2c2nc3ccccc3n2C(C)C)cc(-n2nc(C)nc2C)n1 (stereo in doubt)")
13.6
>>> assay_result("Cc1ccc([C@H]2C[C@@H]2COc2nc(C)ncc2-c2ccc(C(C)O)nc2)nc1 (stereo partly shown)")
0.14
>>> assay_result("COc1ccc([C@H]2C[C@@H]2COc2nc(C)ncc2-c2ccnc(N)c2C#N)nc1")
3.75
>>> assay_result("Cc1nc(C)n(-c2cc([C@H]3C[C@@H]3c3nc4ccccc4n3C)nc(N)n2)n1 (relative stereo)")
4.2
>>> assay_result("COC[C@H](C)Oc1nc(-c2ccc(Cl)nc2)nc2c1CN(C(=O)c1ncn3ccccc13)CC2")
0.43
>>> assay_result("Cc1nc([C@H]2C[C@@H]2c2nc3ccccc3[nH]2)cc(-n2nc(C)nc2C)n1")
38

* * *

Below: molecules with Ki recorded for human PDE10A2 (Homo sapiens (Human)) in separate published works.
Observable: Ki (nM)

>>> assay_result("COc1ccc([C@H]2C[C@@H]2COc2nc(C)ncc2[C@@H]2CC[C@@H](O)C2)nc1")
5.48
>>> assay_result("Cc1nc(N2CC(c3nc4ccccc4n3C)C2)cc(-n2nc(C)nc2C2CCCCC2)n1")
2
>>> assay_result("CCOC(=O)c1cnc(O)cc1-c1cnc(C)nc1OC[C@H]1C[C@@H]1c1ccc(OC)cn1")
41.6
>>> assay_result("COc1ccc([C@H]2C[C@@H]2COc2nc(C)ncc2-c2ccn(C(F)F)c(=O)c2)nc1")
1.93
>>> assay_result("Cc1ncc(-c2cnc3[nH]ncc3c2)c(OC[C@H]2C[C@@H]2c2ccc3ccccc3n2)n1 (single isomer, unassigned)")
0.02
>>> assay_result("COc1ccc2[nH]c(C(=O)N3CCc4nc(-c5cccnc5)nc(OC(C)C)c4C3)cc2n1")
0.8
>>> assay_result("COc1ccc([C@H]2C[C@@H]2COc2nc(C)ncc2-c2nnn(C)n2)nc1")
21.5
>>> assay_result("Cc1cnc(-c2nc(C)nn2-c2cc(N3CC(c4nc5ccccc5n4C)C3)nc(C)n2)cn1")
26
>>> assay_result("Cc1ccc([C@H]2C[C@@H]2COc2nc(C)nc(NCc3nnc(C)s3)c2Cl)nc1")
3.9
>>> assay_result("Cc1nc(N)c2nnn(C3CCCCC3)c2n1")
1100
>>> assay_result("Cc1nc(NCc2cc(C)on2)cc(OCC2CC2c2ccccn2)n1 (stereo not shown)")
1.1
>>> assay_result("Cc1ncc(-c2ccc(C(C)(C)O)nc2)c(OC[C@@H]2C[C@H]2c2ccc(Br)cn2)n1")
8.57
>>> assay_result("Cc1ccc([C@H]2C[C@@H]2COc2nc(C)ncc2-c2ccn(C)c(=O)c2)nc1")
1.73
>>> assay_result("Cc1cnn(-c2cc(N3CC(c4nc5ccccc5n4C)C3)nc(C3CC3)n2)c1")
0.53
>>> assay_result("Cc1ncc([C@@H]2CCC3(C[C@H]2O)OCCO3)c(OC[C@H]2C[C@@H]2c2ccc3ccccc3n2)n1")
7.08
>>> assay_result("CC(C)Oc1nc(-c2ccc(Cl)nc2)nc2c1CN(S(=O)(=O)c1cccnc1)CC2")
0.63
>>> assay_result("CC(C)Oc1nc(-c2ccc(Cl)nc2)nc2c1CN(C(=O)Nc1cnn(C)c1)CC2")
0.9
>>> assay_result("Cc1ncc(-c2cccn3ccnc23)c(OC[C@H]2C[C@@H]2c2ccc3ccccc3n2)n1")
4.03
>>> assay_result("Cc1ncc(-c2cc(=O)n(C)cc2C)c(OC[C@H]2C[C@@H]2c2ccc3ccccc3n2)n1")
0.035
>>> assay_result("Cc1nc(NCc2nnc(C)s2)cc(OC[C@H]2C[C@@H]2c2ccc(C3CC3)cn2)n1 (stereo in doubt)")
0.08
>>> assay_result("Cc1ccc([C@H]2C[C@@H]2COc2nc(C)ncc2-c2cccc(OC(F)(F)F)c2)nc1")
1.11
>>> assay_result("Cc1nc(N2CC(c3nc4ccccc4n3CCO)C2)cc(-n2nc(C)nc2C)n1")
6.6
>>> assay_result("COc1ccc(Cc2nc(C)nn2-c2cc([C@@H]3C[C@H]3c3nc4ccccc4[nH]3)nc(C)n2)cc1OC")
0.005
>>> assay_result("Cc1nc([C@@H]2C[C@H]2c2cn3c(C)cccc3n2)cc(-n2nc(C)nc2C)n1 (relative stereo)")
8.3
>>> assay_result("CCn1cc(-c2cnc(C)nc2OC[C@H]2C[C@@H]2c2ccc(OC)cn2)nn1")
2.43
>>> assay_result("COc1ccc(-n2c(CCNC(=O)c3ccccc3OC)nc3ccccc3c2=O)cc1")
140
>>> assay_result("Cc1nc([C@@H]2C[C@H]2c2nc3ccccc3n2CC2CCCO2)cc(-n2nc(C)nc2C)n1 (stereo in doubt)")
13
>>> assay_result("Cc1ncc(-c2ccc(C3(O)CCCC3)nc2)c(OC[C@H]2C[C@@H]2c2ccccn2)n1")
1.04
